Source of measurements: PubChem BioAssay (NCI)

experimental-protocol: NCI Yeast Anticancer Drug Screen. Data for the sgs1 mgt1 strain (AID 161);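 also: 0% = growth of cultures given vehicle only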
condition-set: S. cerevisiae sgs1 mgt1 strain, at 5.0 µM (retest, dose inferred, filed as 0.5)
This is part of a sample that, as a whole, favours compounds with a hit. Of some 79,000 tested, about 15% had one in any assay. Activity calls are given as the source filed them. Rule as the data show it: active = growth inhibition above about 70%; inactive = the rest.
Outcomes: active, inactive

compound: CC(C)CCC[C@@H](C)[C@H]1CC[C@H]2[C@@H]3CC=C4N5CCCN=C5CC[C@]4(C)[C@H]3CC[C@]12C
category: inactive

compound: CCOC(=O)[C@H]1Nc2ccc([N+](=O)[O-])cc2C2c3ccccc3CC21 (stereo partly specified)
category: inactive

compound: ON=C(Cc1ccccc1)Cc1ccccc1
category: inactive

compound: OC1CCC(O)CC1 (stereo unspecified)
category: inactive

compound: CCOC(=O)C(Cc1c[nH]c2cc([N+](=O)[O-])ccc12)NS(=O)(=O)c1ccc2ccccc2c1 (stereo unspecified)
category: inactive

compound: CNC(=O)N(C)CN(C)C(=O)NC
category: inactive

compound: COC(=O)C(=O)C(C(=O)C(c1ccccc1)c1ccccc1)c1nc2n(c1O)/C(=N/C(=O)Nc1ccc(Cl)cc1)N=N2 (stereo unspecified)
category: inactive

compound: COC(=O)C1C(O)C(C)C(O)C(C)C=C(C)C2=C3C(=C(C)C(=O)c4c(O)c(c(C)c(OC(C)=O)c43)NC(=O)C(C)=C/C=C\C(C)C(O)C(C)C1O)OCO2 (stereo unspecified)
category: inactive

compound: c1ccc(N=c2cnc3c(ccc4ccccc43)o2)cc1
category: active

compound: NC(=O)N/N=C/c1ccc([N+](=O)[O-])o1
category: inactive

compound: CCSC1=C(C)C(=O)c2ccccc2C1=O
category: inactive

compound: Clc1ccc2c(c1)[nH]c1c2nc2ccccn21
category: inactive

compound: CCOC(=O)c1c[nH]c2c([N+](=O)[O-])cc(OC)cc2c1=O
category: inactive

compound: CC(=O)Nc1ccc(S(=O)(=O)N/N=C/c2ccc(C)cc2)cc1
category: inactive

compound: O=C(O)c1c2ccccc2nc2[nH]c(=O)[nH]c(=O)c12
category: inactive

compound: CC(=O)c1ccc(N)cc1
category: inactive

====

experimental-protocol: NCI Yeast Anticancer Drug Screen. Data for the mec2-1 strain (AID 157)
condition-set: S. cerevisiae mec2-1 strain, at 50.0 µM
The panel holds about 79,000 compounds, 15% with a hit somewhere; the sample as a whole holds those more often. Calls of active or inactive are those of the source. Cut-off read from the data, not from the text of the source: active = growth inhibition above about 70%; inactive = the rest.
Outcomes: active, inactive

compound: Cc1cc([N+](=O)[O-])c(C)c2c1[nH]c1ccc(O)cc12
category: active
//
compound: Nc1nc(N)c2c(Cl)c(CNc3ccc(Cl)c(Cl)c3)ccc2n1
category: active
//
compound: COc1ccc2nc(C)cc(NCCCCCCCCCNc3cc(C)nc4ccc(OC)cc34)c2c1
category: active
//
compound: CCN1CCC(O)(c2ccc(Oc3ccccc3)cc2)C(C(=O)c2ccc(Oc3ccccc3)cc2)C1 (stereo not drawn)
category: inactive
//
compound: CCCCCCCCCCS(=O)CC(CO)NC(=O)/C=C/c1c(C)[nH]c(=O)[nH]c1=O (stereo not drawn)
category: active
//
compound: CC(=O)[O-].[O-]c1c(Cl)cc(Cl)cc1/C=N/Nc1ccccn1.[Zn+2]
category: active
//
compound: CC(C)CC(Nc1c(O)ccc2ccccc12)C(=O)O (stereo not drawn)
category: active
//
compound: CC(C)(Cc1nocc1C(C)(C)CC#N)c1cc(CC(C)(C)C2(C)OCCO2)no1
category: inactive
//
compound: O=C(O)CSCc1ccc(Cl)cc1
category: inactive
//
compound: CC(NNC(=S)N1CCN(c2ccccn2)CC1)c1nccc2ccccc12 (stereo not drawn)
category: inactive
//
compound: CCN(CC)CCCn1c2cc(=O)c(=O)cc-2[nH]c2cc(C)ccc21
category: inactive
//
compound: CC(=O)Nc1nc([N+](=O)[O-])c(C(C)C)s1
category: inactive
//
compound: CC(=O)c1ccc(N)cc1
category: inactive
//
compound: Cc1ccc(OC(=O)c2ccc(N)cc2O)cc1
category: inactive
//
compound: Cc1cc2c(c(Br)c1O)Oc1c(cc(C)c(O)c1Br)C21OC(=O)c2ccccc21
category: active
//
compound: c1ccc(N=c2cnc3c(ccc4ccccc43)o2)cc1
category: active
//
compound: CCCCCCCCCCCCCCCCBr
category: active
//
compound: Nc1ccc(Cn2ccc3c4c(N)nc(N)nc4ccc32)cc1
category: inactive

====

experimental-protocol: NCI Yeast Anticancer Drug Screen. Data for the bub3 strain (AID 167)
condition-set: S. cerevisiae bub3 mutant strain, at 50.0 µM, hits give high values
This is part of a sample that, as a whole, favours compounds with a hit. Of some 79,000 tested, about 15% had one in any assay.
# if value of growth inhibition reaches 90%, tag 1; if it stays below, tag 0

chem-smiles: CC[N+](C)(C)c1ccccc1
category: 0
//
chem-smiles: O=C(O)c1ccc(C(c2ccccc2)c2ccccc2)cc1
category: 1
//
chem-smiles: CCN(CC)CCNc1nc(NCCN(CC)CC)c2nc(-c3ccccc3)c(-c3ccccc3)nc2n1
category: 1
//
chem-smiles: O=S(=O)(O)c1ccc2cc(N=Nc3c(O)ccc4ccccc34)ccc2c1
category: 0
//
chem-smiles: CN(C)CCCN=c1c2ccccc2n(O)c2cccc([N+](=O)[O-])c12
category: 0
//
chem-smiles: O=[N+]([O-])c1cccc2nc3ccccc3c(NCCN(CCO)CCO)c12
category: 0

====

experimental-protocol: NCI Yeast Anticancer Drug Screen. Data for the cln2 rad14 strain (AID 165);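 also: 0% = growth equal to vehicle treated cultures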
condition-set: S. cerevisiae cln2 rad14 strain, at 50.0 µM
The panel holds about 79,000 compounds, 15% with a hit somewhere; the sample as a whole holds those more often. Active and inactive are the calls of the source. Cut-off read from the data, not from the text of the source: active = growth inhibition above about 70%; inactive = the rest.
Labels: TRUE (active), FALSE (inactive)

molecule: O=Cc1cc([N+](=O)[O-])ccc1O.[Eu]
category: TRUE
--
molecule: O=[N+]([O-])Cc1cnc2nncn2n1
category: FALSE
--
molecule: CC1=C(C(=O)Nc2c(C)cccc2C)C(c2ccc3c(c2)OCO3)C(C(=O)Nc2c(C)cccc2C)=C(C)N1
category: TRUE
--
molecule: NS(=O)(=O)c1ccc(Nc2c3ccccc3nc3c(C(=O)N4CCN(CCO)CC4)cccc23)cc1
category: FALSE
--
molecule: Oc1c(Cl)cc(Cl)cc1Cc1cc(Cl)cc(Cl)c1O
category: TRUE
--
molecule: COc1cccc2c1C(=O)c1c(O)c3c(c(O)c1C2=O)C[C@@](O)(C(C)=O)C[C@@H]3OC1CC(N(C)C)C(O)C(C)O1 (some centres not stated)
category: TRUE
--
molecule: N#CC1(C2SCCS2=O)C2=C(C(=O)c3ccccc3C2=O)N2CCCC21 (configuration not stated)
category: FALSE
--
molecule: CCC(C)c1ccc(O)c(C(C)CC)c1 (configuration not stated)
category: FALSE
--
molecule: CN(C)CCCN=c1c2ccccc2n(O)c2cccc([N+](=O)[O-])c12
category: FALSE
--
molecule: O=NC1C(Br)C2CC1C1C(Cl)C(Cl)CC21 (configuration not stated)
category: FALSE
--
molecule: CN=c1sc2nc(C#N)c(C#N)nc2n1C
category: FALSE
--
molecule: CCOc1ccc2ccccc2c1C(Cc1ccc(Cl)cc1)NCCO (configuration not stated)
category: TRUE
--
molecule: COc1ccc2cc(C(C)=O)c3ccccc3c2c1
category: FALSE
--
molecule: COC(=O)CSC(=S)N1CCOCC1
category: FALSE
--
molecule: CCOC(CN=c1nc(N(C)C)ss1)OCC
category: FALSE
--
molecule: CN1CCCc2cc(/C=C\c3ccnc4ccccc34)ccc21
category: TRUE
--
molecule: CC(=O)[O-].[O-]c1c(Cl)cc(Cl)cc1/C=N/Nc1ccccn1.[Zn+2]
category: TRUE
--
molecule: N=C1N(c2ccccc2)C(=S)C(=Nc2ccccc2)N1c1ccccc1
category: TRUE
--
molecule: CC(NNC(=S)N1CCN(c2ccccn2)CC1)c1nccc2ccccc12 (configuration not stated)
category: FALSE
--
molecule: CCN(CC)CCNc1nc(NCCN(CC)CC)c2nc(-c3ccccc3)c(-c3ccccc3)nc2n1
category: TRUE
--
molecule: CC[N+](CC)=c1ccc2nc3c(cc(N)c4ccccc43)oc-2c1
category: FALSE
--
molecule: O=[N+]([O-])c1cc([N+](=O)[O-])c2ccccc2c1NS(=O)(=O)/C=C/c1ccccc1
category: FALSE
--
molecule: OC1CN(Cc2ccccc2)C[C@@H]1O (some centres not stated)
category: FALSE
--
molecule: CC(C)(C)OC(=O)NCCc1cccc2c1oc1c(CCC(=O)O)cccc12
category: TRUE
--
molecule: C=C1C(=O)OC2CC(C)C3C4OC4C(O)C3(C)C(O)C12 (configuration not stated)
category: FALSE
--
molecule: C=C1C(=O)C23OC2C1CCC(=O)C1(C)CC[C@H](OC(C)=O)C(C)(C)[C@H]1CC3=O (some centres not stated)
category: TRUE
--
molecule: Cc1cccc2c1Oc1cc(Cl)ccc1C2NC(=O)CCN1CCCCC1 (configuration not stated)
category: FALSE
--
molecule: OC1CC2CCCC(C1)C2 (configuration not stated)
category: TRUE
--
molecule: CCOc1ccc(NC(=O)C(=O)NO)cc1
category: FALSE
--
molecule: O=C(O)COc1ccc(OCC(=O)O)cc1
category: FALSE
--
molecule: C1=C(CN2CCCCC2)COc2ccccc21
category: FALSE
--
molecule: NCCCC(=O)O
category: FALSE
--
molecule: O=C(OC1COC(OC(=O)c2ccccc2)C(OC(=O)c2ccccc2)C1OC(=O)c1ccccc1)c1ccccc1 (configuration not stated)
category: FALSE
--
molecule: CC(C)CCC[C@@H](C)[C@H]1CC[C@H]2[C@@H]3CC=C4N5CCCN=C5CC[C@]4(C)[C@H]3CC[C@]12C
category: TRUE
--
molecule: COC(=O)c1nnn(-c2ccc(S(N)(=O)=O)cc2)c1N
category: FALSE
--
molecule: C=CC(=O)OCCOc1ccc(Cl)cc1Cl
category: FALSE
--
molecule: CC(=O)OC(OC(C)=O)c1c2ccccc2cc2ccccc12
category: TRUE
